Assay: soluble fraction after stress (log2 fold change); higher = more stays soluble; pooled small domains, quantitative proteomics;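 also: 20 min heating vs room temperature control held 20 min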
Settings: stress: 75 degC
Tick Fulfilled if soluble fraction (log2) is -0.07 or greater. Tick Not fulfilled if soluble fraction (log2) is less than -0.07.

Input line: Tell me whether soluble fraction (log2) is at least -0.07 here: `HMPRENLAYTLIMDGIVQHKNLPRASVTEAWLKQELQKAGINDFRQVLIAGIDSKGQLYFQPKQK`
Output line: Fulfilled

Input line: Determine whether measured soluble fraction (log2) meets or exceeds -0.07 for `HMLDFGQEDSEAVSEIILVLGRYWMDFSHKKYPEAEGSALRHKGISHIFTVLKPYLTSATAQLIEQRLQQ`
Output line: Fulfilled

Input line: Please tell me: is the sequence `HMQESTILPAQKSAISSLATSAGFSSENLKRYLLQNYGVDLKDLTRSQGAEVIKAFQSGNVSKP` at or over -0.07 in terms of soluble fraction (log2)?
Output line: Fulfilled

* * *

Assay: soluble fraction after stress (log2 fold change); higher = more stays soluble; pooled small domains, quantitative proteomics
Settings: stress: 75 degC
quantity_kind: soluble fraction (log2)
// print number alone

In the examples that follow, each entry is paired with its recorded soluble fraction (log2).
{"monomer_sequence": "HMIGAKVLVNGQLHRDSYGEGPGQTESNATRLVNYINMKGSHPYHVTTLDGGWRGWVTADSVQV", "soluble fraction (log2)": 0.139}
{"monomer_sequence": "HMHDRRSGKVKWYSDRKGYGFIDLDGGEVFIHRSALIAFGALRLQAEDIITITVRETDRGLVVDQLFGIER", "soluble fraction (log2)": -1.66}
{"monomer_sequence": "HMSNETKSAILNFAEKHHDFNIDDLFESLSKSMDINRSSLLWHLFKLVNSNVLIRTGRGMYAKV", "soluble fraction (log2)": -2.62}

Read the next record carefully.
Input line: # input sequence: `HMYVTGETIRHLRTQRRMTQEQLAETLGVTGKAVSKWETGRGFPDMSLLEPLARALRISVPELLSGE` ; wanted: its soluble fraction (log2)
Output line: -1.07

* * *

Test: soluble fraction after stress (log2 fold change); higher = more stays soluble; pooled small domains, quantitative proteomics
Settings: stress: 75 degC
quantity_kind: soluble fraction (log2)
Write no unit; give the number alone.

{"monomer_sequence": "HMEVPFRNAAIFKTRSGDYAIRASYDGVDLGIKPIEKSTARTYFQLTDVKDKESFLNMTARNQYESEIAGI", "quantity_kind": "soluble fraction (log2)", "recorded_number": -0.0612}
{"monomer_sequence": "HMADGTSIYAEREVLYVTSPTANTAKVYNVSGALVRTMTLSAGQTVRTALPAGFYVVALGNGNTHKVIV", "quantity_kind": "soluble fraction (log2)", "recorded_number": -2.4}
{"monomer_sequence": "HMSQIAENNQKYVGTIQKVLVEGTSKNNDDMLTGRTDSNKVVIFEGDKKLIGNMVELKIVSEHMWYLKGEL", "quantity_kind": "soluble fraction (log2)", "recorded_number": -0.0812}
{"monomer_sequence": "HMTNSAGIERFLASGAIDGVGPAMARRIVEHFGTEALRIIESVPHRLREISGIGPKTAEKIASSYMRQ", "quantity_kind": "soluble fraction (log2)", "recorded_number": -1.15}
{"monomer_sequence": "HMNKPTFNIFNNRLTFPFKGDITIYSLDGKRVFSAYNESSVNLSFLNRGSYISEFNNSRSVLIL", "quantity_kind": "soluble fraction (log2)", "recorded_number": -1.34}

Input line: # query: soluble fraction (log2) of entry `HMPEFKDMLKFFRMREHLSQSELAEKLGISASTVSMYEVGRRQPDFETEEKIADFFNTDLNTLRG`
Output line: -0.693

Input line: Consider the sequence shown here: `HMISRKIKELRLSHDLTQKDLADYLNLTPKMVSFYELGQRVPPSDIILKLAEKFHVSTDYLLGNEDRP` What is its recorded soluble fraction (log2)?
Output line: -0.196

Input line: Can you share its soluble fraction (log2)? I mean this sequence: `HMKIYDQVVDRIKDRISKGDMPQGSALPPERQLIDELNVSRSSLREGFRILEMMGLIESIPGKGRFVRTSR`
Output line: -0.607
